Target: Adenosine receptors; A2b & A3 (Homo sapiens) (UniProt P29275+P0DMS8)
Test: Selectivity for human adenosine A2b receptor over adenosine A3 receptor
Type: protein assay
measurement_kind: Ratio Ki
API doc: respond with a numeric literal and nothing else, no unit.

Task item: Provide only the value of recorded Ratio Ki for "Cn1c(=O)c2nc(-c3cnn(Cc4cccc(C(F)(F)F)c4)c3)[nH]c2n(C)c1=O"
Reply: 1000

Task item: Provide only the value of recorded Ratio Ki for "CCCn1c(=O)c2nc(-c3cn[nH]c3)[nH]c2n(CCC)c1=O"
Reply: 2

Task item: Provide only the value of recorded Ratio Ki for "CCCn1c(=O)c2[nH]c(-c3cnn(Cc4cccc(F)c4)c3)nc2n(CCC)c1=O"
Reply: 4

Task item: Provide only the value of recorded Ratio Ki for "CCCn1c(=O)c2nc(-c3cnn(Cc4cc(C(F)(F)F)ccc4Cl)c3)[nH]c2n(CCC)c1=O"
Reply: 129

Task item: Provide only the value of recorded Ratio Ki for "CCCn1c(=O)c2[nH]c(-c3cnn(Cc4ccccc4)c3)nc2n(CCC)c1=O"
Reply: 15

Task item: Provide only the value of recorded Ratio Ki for "CCCn1c(=O)c2[nH]c(-c3cnn(Cc4cccc(C(F)(F)F)c4)c3)nc2n(CCC)c1=O"
Reply: 10
